Collected pKd values appear next to each entry.
Target: human 5-HT4(b) receptors (Homo sapiens)
Construct: expressed in transfected cells
Test: Radioligand binding assay with [3H]GR113808, membranes of HEK293 cells stably expressing human 5-HT4(b) receptors
// pKd is dimensionless: -log10 of concentration (M)

The examples below pair each entry with its known result.
{"MOLECULAR_STRING": "O=C(NCC1CCN(Cc2ccccc2)CC1)c1c2n(c3ccccc13)CCCO2", "pKd": 9.80}
{"MOLECULAR_STRING": "CCOC(=O)CCCN1CCC(CNC(=O)c2c3n(c4ccccc24)CCCO3)CC1", "pKd": 9.91}

Request: pKd for COC(=O)CCCCCN1CCC(CNC(=O)c2c3n(c4ccccc24)CCCO3)CC1 ?
Response: 9.87

Request: pKd for O=C(CCCN1CCC(CNC(=O)c2c3n(c4ccccc24)CCCO3)CC1)OCC(Cl)(Cl)Cl ?
Response: 9.58

---

Target: human 5-HT4(b) receptors (Homo sapiens)
Construct: expressed in transfected cells
Assay: Radioligand binding assay with [3H]GR113808, membranes of HEK293 cells stably expressing human 5-HT4(b) receptors
Conditions: [3H]GR113808, HEK293 membranes, human 5-HT4(b); where n = 2, ± half-range; read-out: Binding affinity (pKd value) (pKd ± SEM) (converted)
ASSAY_METRIC: Kd (nM)
Give just the numeric value; nM need not be written.

The examples below pair each entry with its known result.
{"MOLECULAR_STRING": "CC(C)n1nc(C(=O)NC2CCN(CCCC(=O)O)CC2)c2ccccc21", "TARGET_OF_ASSAY": "human 5-HT4(b) receptors (Homo sapiens)", "ASSAY_METRIC": "Kd", "READOUT_VALUE": 692}
{"MOLECULAR_STRING": "CC(C)n1nc(C(=O)NC2CCN(Cc3ccc(C(=O)O)cc3)CC2)c2ccccc21", "TARGET_OF_ASSAY": "human 5-HT4(b) receptors (Homo sapiens)", "ASSAY_METRIC": "Kd", "READOUT_VALUE": 2190}
{"MOLECULAR_STRING": "CCOC(=O)CCCN1CCC(NC(=O)c2cccc3ccccc23)CC1", "TARGET_OF_ASSAY": "human 5-HT4(b) receptors (Homo sapiens)", "ASSAY_METRIC": "Kd", "READOUT_VALUE": 1580}
{"MOLECULAR_STRING": "O=C(O)CCCN1CCC(COC(=O)c2cccc3ccccc23)CC1", "TARGET_OF_ASSAY": "human 5-HT4(b) receptors (Homo sapiens)", "ASSAY_METRIC": "Kd", "READOUT_VALUE": 12.9}

Proceed to the following item.
Request: Kd for O=C(O)CCCN1CCC(CNC(=O)c2c3n(c4ccccc24)CCCO3)CC1 ?
Response: 2.09

---

Target: human 5-HT4(b) receptors (Homo sapiens, UniProt Q13639)
Construct: expressed in transfected cells
Sequence (Q13639 whole entry): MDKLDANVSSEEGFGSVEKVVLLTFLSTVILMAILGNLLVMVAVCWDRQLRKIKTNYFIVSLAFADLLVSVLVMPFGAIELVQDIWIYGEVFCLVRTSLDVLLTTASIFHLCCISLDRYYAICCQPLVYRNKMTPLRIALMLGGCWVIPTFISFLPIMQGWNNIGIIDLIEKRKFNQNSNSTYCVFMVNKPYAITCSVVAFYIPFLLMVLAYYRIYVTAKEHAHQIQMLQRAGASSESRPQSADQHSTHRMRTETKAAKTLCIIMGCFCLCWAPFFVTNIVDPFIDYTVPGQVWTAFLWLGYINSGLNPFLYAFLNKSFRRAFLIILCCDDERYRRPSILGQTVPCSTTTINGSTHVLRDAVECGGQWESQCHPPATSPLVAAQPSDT
Test: Adenylyl cyclase assay in membranes of HEK293 cells stably expressing human 5-HT4(b) receptors
Assay type: biochemical
Details: where n = 2, ± half-range, read-out: Antagonist pKb value (pKb ± SEM) (converted)
ASSAY_METRIC: log10(Kb) (log10 of the value in µM)
Field: value | Transform: log10 | Quantity: Kb | Unit: µM

The examples below pair each entry with its known result.
{"MOLECULAR_STRING": "O=C(O)CN1CCN(S(=O)(=O)CCCN2CCC(CNC(=O)c3cccc4c3OCCO4)CC2)CC1", "log10(Kb)": -2.56}
{"MOLECULAR_STRING": "CC(C)n1nc(C(=O)NC2CCN(Cc3ccc(C(=O)OCC(Cl)(Cl)Cl)cc3)CC2)c2ccccc21", "log10(Kb)": -0.14}
{"MOLECULAR_STRING": "CCOC(=O)CCCN1CCC(CNC(=O)c2c[nH]c3ccccc23)CC1", "log10(Kb)": 0.21}
{"MOLECULAR_STRING": "O=C(O)CCCN1CCC(COC(=O)c2c[nH]c3ccccc23)CC1", "log10(Kb)": -2.15}

Request: log10(Kb) for O=C(CCCN1CCC(COC(=O)c2c[nH]c3ccccc23)CC1)OCC(Cl)(Cl)Cl ?
Response: -3.13

Request: log10(Kb) for CCOC(=O)CCCN1CCC(NC(=O)c2cccc3ccccc23)CC1 ?
Response: 0.51

Request: log10(Kb) for CC(C)n1nc(C(=O)NC2CCN(Cc3ccccc3)CC2)c2ccccc21 ?
Response: -0.51

---

Biological target: human 5-HT4(b) receptors (Homo sapiens)
Construct: expressed in transfected cells
Assay: Adenylyl cyclase assay in membranes of HEK293 cells stably expressing human 5-HT4(b) receptors
Assay type: biochemical
ASSAY_METRIC: Agonist/Antagonist properties

The examples below pair each entry with its known result.
{"MOLECULE": "CCCCN1CCC(CNC(=O)c2c3n(c4ccccc24)CCCO3)CC1 [SB207266, reference compound]", "READOUT_VALUE": "Antagonist"}
{"MOLECULE": "Cn1cc(C(=O)OCC2CCN(CCNS(C)(=O)=O)CC2)c2ccccc21 [GR113808, reference compound]", "READOUT_VALUE": "Antagonist"}
{"MOLECULE": "COC(=O)CCCCCN1CCC(CNC(=O)c2c3n(c4ccccc24)CCCO3)CC1 [Example 50]", "READOUT_VALUE": "Antagonist"}
{"MOLECULE": "CC(C)n1nc(C(=O)NC2CCN(Cc3ccc(C(=O)OCC(Cl)(Cl)Cl)cc3)CC2)c2ccccc21 [Example 35]", "READOUT_VALUE": "Partial agonist"}
{"MOLECULE": "CCOP(=O)(CCN1CCC(CNC(=O)c2c3n(c4ccccc24)CCCO3)CC1)OCC [Example 53]", "READOUT_VALUE": "Antagonist"}
{"MOLECULE": "O=C(OCC1CCN(Cc2ccccc2)CC1)c1cccc2ccccc12 [Example 22]", "READOUT_VALUE": "Weak partial"}
{"MOLECULE": "O=C(O)CCCN1CCC(COC(=O)c2cccc3ccccc23)CC1 [Example 26]", "READOUT_VALUE": "Weak partial"}
{"MOLECULE": "CCOC(=O)CCCN1CCC(CNC(=O)c2c3n(c4ccccc24)CCCO3)CC1 [Example 49]", "READOUT_VALUE": "Antagonist"}
{"MOLECULE": "CCOP(=O)(CCN1CCC(COC(=O)c2cccc3ccccc23)CC1)OCC [Example 27]", "READOUT_VALUE": "Weak partial"}
{"MOLECULE": "O=C(O)CN1CCN(S(=O)(=O)CCCN2CCC(CNC(=O)c3cccc4c3OCCO4)CC2)CC1 [Example 67]", "READOUT_VALUE": "Antagonist"}

Request: Agonist/Antagonist properties for O=C(O)CCCN1CCC(COC(=O)c2c[nH]c3ccccc23)CC1 [Example 13] ?
Response: Antagonist

Request: Agonist/Antagonist properties for CCOC(=O)CCCN1CCC(CNC(=O)c2c[nH]c3ccccc23)CC1 [Example 60] ?
Response: Antagonist

Request: Agonist/Antagonist properties for CCOC(=O)CCCN1CCC(NC(=O)c2nn(C(C)C)c3ccccc23)CC1 [Example 31] ?
Response: Partial agonist

---

Collected log10 Kd values appear next to each entry.
Biological target: human 5-HT4(b) receptors (Homo sapiens, UniProt Q13639)
Construct: expressed in transfected cells
Assay: Radioligand binding assay with [3H]GR113808, membranes of HEK293 cells stably expressing human 5-HT4(b) receptors
Conditions: [3H]GR113808, HEK293 membranes, human 5-HT4(b); where n = 2, ± half-range; read-out: Binding affinity (pKd value) (pKd ± SEM) (converted)
Field: value | Transform: log10 | Quantity: Kd | Unit: nM

{"COMPOUND": "O=C(CCCN1CCC(COC(=O)c2c[nH]c3ccccc23)CC1)OCC(Cl)(Cl)Cl [Example 12]", "log10 Kd": 0.70}
{"COMPOUND": "Cn1cc(C(=O)OCC2CCN(CCNS(C)(=O)=O)CC2)c2ccccc21 [GR113808, reference compound]", "log10 Kd": -1.09}
{"COMPOUND": "CCOC(=O)CCCN1CCC(CNC(=O)c2cc(Cl)c(N)cc2OC)CC1 [Example 40]", "log10 Kd": 1.30}
{"COMPOUND": "CC(C)n1nc(C(=O)NC2CCN(Cc3ccc(C(=O)OCC(Cl)(Cl)Cl)cc3)CC2)c2ccccc21 [Example 35]", "log10 Kd": 3.08}
{"COMPOUND": "O=C(O)CN1CCN(S(=O)(=O)CCCN2CCC(CNC(=O)c3cccc4c3OCCO4)CC2)CC1 [Example 67]", "log10 Kd": -0.09}

Request: log10 Kd for CCOP(=O)(CCN1CCC(COC(=O)c2cccc3ccccc23)CC1)OCC [Example 27] ?
Response: 1.20

Request: log10 Kd for O=C(OCC1CCN(Cc2ccccc2)CC1)c1cccc2ccccc12 [Example 22] ?
Response: 1.63

Request: log10 Kd for CCOP(=O)(CCN1CCC(CNC(=O)c2c3n(c4ccccc24)CCCO3)CC1)OCC [Example 53] ?
Response: 0.12
